B1: FBXO33 (parent)
chain: RLRGLLRVLRGRPGAGSRRRGRMA

Variants of: B1
Experiment: protein stability index of a GFP-peptide fusion (GPS, HEK-293T) (PSI 1-6); higher = more stable;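 also: lentivirally expressed fusions sorted by FACS into six bins by GFP to DsRed ratio, PSI derived from sequencing read proportions per bin multiplied by bin number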
Conditions: c terminus: a fixed tail appended
Exercise: for every item that follows, state its recorded protein stability index.
Respond using a number only.

Problem: Reported protein stability index, variant `S17T` : ____
Solution: 3.32

Problem: Same lookup for `R18Y` , please.
Solution: 1.95

Problem: Repeat for the following variant: `A24Y`
Solution: 2.27

Problem: Moving on to `R1A`
Solution: 1.7

Problem: Please give the result for `R20C` too.
Solution: 1.72

Problem: Now consider `R19S` .
Solution: 1.79

Problem: Thanks! And `L5W` ?
Solution: 1.85

Problem: Try the variant `G16Y`
Solution: 1.86

Problem: Similarly, `L5V` ?
Solution: 2.71

Problem: Also, `R22K` please.
Solution: 1.76

Problem: How about `L2K` ?
Solution: 3.56

Problem: Follow-up entry: `R20H`
Solution: 1.23

Problem: Now this one: `R18C`
Solution: 1.8

Problem: Please do the same for `R1S` as well.
Solution: 1.75

Problem: One more variant: `G21P`
Solution: 1.69

Problem: Another variant to look at: `R10C`
Solution: 2.99

Problem: Please give the result for `A15Q` too.
Solution: 1.49

Problem: Now consider `S17E` .
Solution: 2.36

Problem: Now give it for `P13K` too.
Solution: 3.26

Problem: Thanks! And `R1L` ?
Solution: 1.59

Problem: Next: `G21R`
Solution: 3.38

Problem: Next variant: `R12D`
Solution: 2.31

Problem: For `P13S` then?
Solution: 3.48

Problem: Consider next the variant `G16F` in the same way.
Solution: 1.79

Problem: Again, but for `L2W`
Solution: 3.3

Problem: Note, next up: `A15L`
Solution: 1.19

Problem: Again, but for `G21F`
Solution: 1.58

Problem: Could you do the same for `R19K` , please?
Solution: 1.89

Problem: What about this variant? `R10I`
Solution: 2.25

Problem: Follow-up item: `R7T`
Solution: 2.05

Source: the supplement of paper PMC10567573
